Entries and their koff
- SYSTEM NAME: T1, recombinant human IL-6 (human, UniProt P05231 30-212)
- T1 construct: Bought protein
- T1 sequence (P05231 30-212 limits assumed): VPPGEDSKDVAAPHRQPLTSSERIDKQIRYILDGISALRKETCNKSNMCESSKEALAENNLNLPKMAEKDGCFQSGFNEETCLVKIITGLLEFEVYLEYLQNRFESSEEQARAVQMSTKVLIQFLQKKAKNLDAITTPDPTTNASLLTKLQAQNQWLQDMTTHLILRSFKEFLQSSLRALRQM
- ASSAY COMMENT: SPR Biacore, supernatant Ab on Protein A chip, IL-6 analyte, 25 C
Kindly answer with a numeric value in s⁻¹, unit omitted.

BINDER	ENDPOINT RESULT
anti-IL-6 antibody, light chain Y95I (heavy chain WT) (antibody, V domains shown, See note of m2; also called WT / Y95I) VH: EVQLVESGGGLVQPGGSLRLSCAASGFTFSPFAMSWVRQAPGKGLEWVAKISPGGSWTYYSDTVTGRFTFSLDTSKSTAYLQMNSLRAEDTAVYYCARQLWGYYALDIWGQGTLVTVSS VL: DIQLTQSPSSLSASVGDRVTITCSASISVSYMYWYQQKPGKAPKLLIYDMSNLASGVPSRFSGSGSGTDFTLTISSLQPEDFATYYCMQWSGYPITFGQGTKVEIK	0.00444
anti-IL-6 antibody, light chain L53H (heavy chain WT) (antibody, V domains shown, See note of m2; also called WT / L53H) VH: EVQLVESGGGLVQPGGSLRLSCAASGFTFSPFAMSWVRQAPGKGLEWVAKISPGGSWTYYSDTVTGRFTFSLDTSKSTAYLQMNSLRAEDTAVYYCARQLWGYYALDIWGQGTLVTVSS VL: DIQLTQSPSSLSASVGDRVTITCSASISVSYMYWYQQKPGKAPKLLIYDMSNHASGVPSRFSGSGSGTDFTLTISSLQPEDFATYYCMQWSGYPYTFGQGTKVEIK	0.000218

If you can, please state the reported koff value of anti-IL-6 antibody, light chain T96V (heavy chain WT) (antibody, V domains shown, See note of m2; also called WT / T96V) VH: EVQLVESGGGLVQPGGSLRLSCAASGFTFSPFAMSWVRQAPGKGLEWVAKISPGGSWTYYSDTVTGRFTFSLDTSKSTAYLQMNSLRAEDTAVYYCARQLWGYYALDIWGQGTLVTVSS VL: DIQLTQSPSSLSASVGDRVTITCSASISVSYMYWYQQKPGKAPKLLIYDMSNLASGVPSRFSGSGSGTDFTLTISSLQPEDFATYYCMQWSGYPYVFGQGTKVEIK .
0.000192
